Data credit: the supplement of paper PMC6555819

- Test system: RARg:RXRa (NR concentration 270 nM, RXRa partner concentration 90 nM)
- ASSAY: PBM binding z-score (relative to random genomic background probes); higher = stronger binding; sequences stand for … in GC…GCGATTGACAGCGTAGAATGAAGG
RECORDED_METRIC: PBM binding z-score
Field format: numeric only.

# example entries with known answers
>>> recorded_measurement("TCGAGTAGGTTAGTCGGGGCATCCAGCCAACATA")
0.0156
>>> recorded_measurement("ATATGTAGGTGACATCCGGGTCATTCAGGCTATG")
3.31
>>> recorded_measurement("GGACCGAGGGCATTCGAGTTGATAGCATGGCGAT")
1.2
>>> recorded_measurement("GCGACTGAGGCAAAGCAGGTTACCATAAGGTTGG")
0.00383
>>> recorded_measurement("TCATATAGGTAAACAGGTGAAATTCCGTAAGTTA")
0.589
>>> recorded_measurement("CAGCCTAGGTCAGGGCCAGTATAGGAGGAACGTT")
3.08

IN: Recall and state the measured PBM binding z-score for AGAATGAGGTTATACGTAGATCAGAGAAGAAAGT .
OUT: 1.83

IN: Check the records and state PBM binding z-score for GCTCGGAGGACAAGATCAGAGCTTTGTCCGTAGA
OUT: -0.459

IN: Return reported PBM binding z-score. Input sequence: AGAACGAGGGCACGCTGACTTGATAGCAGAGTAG
OUT: 1.84

IN: Provide PBM binding z-score value for the following sequence: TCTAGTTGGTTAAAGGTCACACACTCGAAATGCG
OUT: 6.13

IN: Kindly indicate its recorded PBM binding z-score. Item: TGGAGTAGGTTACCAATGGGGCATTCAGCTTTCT
OUT: 1.4

IN: Please list PBM binding z-score recorded for the sequence CTCGATAGGTCGTGCTCAGGTGAGTATACCAAAC
OUT: 2.26
